Taken from PubChem BioAssay AID330.

- System: P388 leukemia ip, CD2F1 mice, survival T/C
- Experiment description: NCI In Vivo Anticancer Drug Screen. Data for tumor model P388 Leukemia (intraperitoneal) in CD2F1 (CDF1) mice
- Reported conditions: endpoint: median survival time; dose: 50.0 mg/kg/injection; schedule: Q01DX005 (ip); vehicle: Klucel (hydroxypropylcellulose) (HPC); higher = longer survival
- Method: The antitumor activity of compounds was measured in mice bearing transplantable tumors. Survival or tumor size were measured and the results are expressed as the measurement made in the treated group (T) divided by the measurement made in the vehicle treated control group (C). The tumor model used in this assay is P388 Leukemia (intraperitoneal) in CD2F1 (CDF1) mice
Toxic doses and inconclusive results are not listed. Peptide text beside a SMILES is read from it.

{"Compound": "O=C(Nc1ccccc1)/C(N=Nc1ccc([N+](=O)[O-])cc1Cl)=N/Nc1ccc([N+](=O)[O-])cc1Cl", "Target or test system": "P388 leukemia ip, CD2F1 mice, survival T/C", "T/C": "111 % of control"}
{"Compound": "COc1ccc2c(c1)C(=O)CC2", "Target or test system": "P388 leukemia ip, CD2F1 mice, survival T/C", "T/C": "106 % of control"}
{"Compound": "COC(=O)NC12CC3CC(C(C)O1)C2N(Cc1ccccc1)C3 (configuration not stated)", "Target or test system": "P388 leukemia ip, CD2F1 mice, survival T/C", "T/C": "93 % of control"}
{"Compound": "O=C1SC/C(=N\\N=C2/CSC(=O)N2Cc2ccccc2)N1Cc1ccccc1", "Target or test system": "P388 leukemia ip, CD2F1 mice, survival T/C", "T/C": "87 % of control"}
{"Compound": "O=[N+]([O-])c1ccc(-c2nnn(Cc3ccco3)c2N2CCCCC2)cc1", "Target or test system": "P388 leukemia ip, CD2F1 mice, survival T/C", "T/C": "105 % of control"}
{"Compound": "S=C(Cl)Sc1ccc(-c2ccc(SC(=S)Cl)cc2)cc1", "Target or test system": "P388 leukemia ip, CD2F1 mice, survival T/C", "T/C": "88 % of control"}
{"Compound": "Cc1cc(Br)ccc1N1C(=O)CC(Sc2ccccc2N)C1=O (configuration not stated)", "Target or test system": "P388 leukemia ip, CD2F1 mice, survival T/C", "T/C": "88 % of control"}
{"Compound": "CCN1C(=O)NC(=O)C(CC)(N2CCCCC2)C1=O (configuration not stated)", "Target or test system": "P388 leukemia ip, CD2F1 mice, survival T/C", "T/C": "111 % of control"}
{"Compound": "Cc1ccc(NP2(Nc3ccc(C)cc3)=NP(Nc3ccc(C)cc3)(Nc3ccc(C)cc3)=NP(Nc3ccc(C)cc3)(Nc3ccc(C)cc3)=NP(Nc3ccc(C)cc3)(Nc3ccc(C)cc3)=N2)cc1", "Target or test system": "P388 leukemia ip, CD2F1 mice, survival T/C", "T/C": "101 % of control"}
{"Compound": "COC(=O)C1=C(C(=O)OC)P2(c3ccccc3)(c3ccccc3)S/C(=N\\P(C)(C)=S)N2C1(c1ccccc1)c1ccccc1", "Target or test system": "P388 leukemia ip, CD2F1 mice, survival T/C", "T/C": "98 % of control"}
{"Compound": "O=C1CC(=O)N(CN2C(=O)CC(=O)NC2=S)C(=S)N1", "Target or test system": "P388 leukemia ip, CD2F1 mice, survival T/C", "T/C": "100 % of control"}
{"Compound": "COc1ccc(Cc2cc3c(cc2OCC(=O)NN)OCO3)cc1", "Target or test system": "P388 leukemia ip, CD2F1 mice, survival T/C", "T/C": "89 % of control"}
{"Compound": "CN1C(=O)C(=C2C=C(c3ccccc3)C(C#N)(c3ccccc3)C(c3ccccc3)=C2)C(=O)N(C)C1=O (configuration not stated)", "Target or test system": "P388 leukemia ip, CD2F1 mice, survival T/C", "T/C": "106 % of control"}
{"Compound": "COc1ccc(N(C)C(=S)c2ccccc2)cc1", "Target or test system": "P388 leukemia ip, CD2F1 mice, survival T/C", "T/C": "103 % of control"}
{"Compound": "Cc1ccc2nc3[nH]c(=O)[nH]c(=O)c3c(N)c2c1", "Target or test system": "P388 leukemia ip, CD2F1 mice, survival T/C", "T/C": "101 % of control"}
{"Compound": "CCCCn1ccc(=O)[nH]c1=O", "Target or test system": "P388 leukemia ip, CD2F1 mice, survival T/C", "T/C": "93 % of control"}
{"Compound": "CN(C)C1c2cc(Cl)ccc2-c2c(N)cc(Cl)cc21 (configuration not stated)", "Target or test system": "P388 leukemia ip, CD2F1 mice, survival T/C", "T/C": "103 % of control"}
{"Compound": "COc1nc(C(Br)Br)c([N+](=O)[O-])c(N2CCOCC2)n1", "Target or test system": "P388 leukemia ip, CD2F1 mice, survival T/C", "T/C": "101 % of control"}
{"Compound": "COc1c(NC(C)=O)c2ccccc2c2ccccc12", "Target or test system": "P388 leukemia ip, CD2F1 mice, survival T/C", "T/C": "106 % of control"}
{"Compound": "Cc1nn2c(=O)c3c([N+](=O)[O-])c(C)nn3c(=O)c2c1[N+](=O)[O-]", "Target or test system": "P388 leukemia ip, CD2F1 mice, survival T/C", "T/C": "105 % of control"}
{"Compound": "COC(=O)C1=C(C(=O)OC)C2(c3ccccc3-c3ccccc32)C2C=CC=CN12 (configuration not stated)", "Target or test system": "P388 leukemia ip, CD2F1 mice, survival T/C", "T/C": "100 % of control"}
{"Compound": "CSCCC(NC(=O)C(Cl)Cl)C(=O)O (configuration not stated)", "Target or test system": "P388 leukemia ip, CD2F1 mice, survival T/C", "T/C": "100 % of control"}
{"Compound": "COc1ccccc1N=NNc1ccc(S(=O)(=O)NC(C)=O)cc1", "Target or test system": "P388 leukemia ip, CD2F1 mice, survival T/C", "T/C": "107 % of control"}
{"Compound": "COc1ccc2c3c([nH]c2c1)[C@H]1C[C@H]2[C@H](C[C@@H](O)[C@H](OC)[C@H]2CO)CN1CC3", "Target or test system": "P388 leukemia ip, CD2F1 mice, survival T/C", "T/C": "104 % of control"}
{"Compound": "CC1S(=O)(=O)O[Si](C)(C)CC[Si](C)(C)OS1(=O)=O", "Target or test system": "P388 leukemia ip, CD2F1 mice, survival T/C", "T/C": "105 % of control"}
{"Compound": "CC(C)(C)OC(=O)N1CCCC1C(=O)O (configuration not stated)", "Target or test system": "P388 leukemia ip, CD2F1 mice, survival T/C", "T/C": "100 % of control"}
{"Compound": "CCN1C(=O)C(=C2C=C(c3ccccc3)C(C#N)(c3ccccc3)C(c3ccccc3)=C2)C(=O)N(CC)C1=S (configuration not stated)", "Target or test system": "P388 leukemia ip, CD2F1 mice, survival T/C", "T/C": "99 % of control"}
{"Compound": "CCCn1c(C)nc2ncn(-c3ccccc3)c2c1=O", "Target or test system": "P388 leukemia ip, CD2F1 mice, survival T/C", "T/C": "101 % of control"}
{"Compound": "CC(C(=O)O)c1cccc2c(=O)cc(-c3ccccc3)oc12 (configuration not stated)", "Target or test system": "P388 leukemia ip, CD2F1 mice, survival T/C", "T/C": "100 % of control"}
{"Compound": "CSc1nc(N)c(NS(=O)(=O)c2ccccc2[N+](=O)[O-])c(=O)[nH]1", "Target or test system": "P388 leukemia ip, CD2F1 mice, survival T/C", "T/C": "100 % of control"}
{"Compound": "Cc1ccc(S(=O)(=O)N2CCCC2C(=O)NNC(N)=S)cc1 (configuration not stated)", "Target or test system": "P388 leukemia ip, CD2F1 mice, survival T/C", "T/C": "99 % of control"}
{"Compound": "NC1=NN(S(=O)(=O)c2ccccc2)CC1", "Target or test system": "P388 leukemia ip, CD2F1 mice, survival T/C", "T/C": "94 % of control"}
{"Compound": "CC1CN(C(=O)/C=C/C(=O)OC2CCCCC2)CCN1C(=O)/C=C/C(=O)OC1CCCCC1 (configuration not stated)", "Target or test system": "P388 leukemia ip, CD2F1 mice, survival T/C", "T/C": "100 % of control"}
{"Compound": "Cc1cc(=O)c2cc3nc(-c4cccnc4)oc3c(Br)c2o1", "Target or test system": "P388 leukemia ip, CD2F1 mice, survival T/C", "T/C": "97 % of control"}
{"Compound": "CCCCCC1(CCBr)C(=O)NC(=O)NC1=O", "Target or test system": "P388 leukemia ip, CD2F1 mice, survival T/C", "T/C": "100 % of control"}
{"Compound": "O=Nc1c2n[nH]c1CCCCCCCCC2", "Target or test system": "P388 leukemia ip, CD2F1 mice, survival T/C", "T/C": "101 % of control"}
{"Compound": "CCOC(=O)CNC(=O)C(CSSCC(NC(=O)OCc1ccccc1)C(=O)OC)NC(=O)C(NC(=O)OCc1ccccc1)C(C)C (configuration not stated)", "Target or test system": "P388 leukemia ip, CD2F1 mice, survival T/C", "T/C": "100 % of control"}
{"Compound": "Cc1ccnc(NS(=O)(=O)c2ccc(NC(=O)Nc3cccc(Cl)c3)cc2)n1", "Target or test system": "P388 leukemia ip, CD2F1 mice, survival T/C", "T/C": "86 % of control"}
{"Compound": "CCN(CC)c1ccc2c(c1)Oc1cc(N(CC)CC)ccc1C21c2ccccc2C(=O)N1c1ccccc1", "Target or test system": "P388 leukemia ip, CD2F1 mice, survival T/C", "T/C": "98 % of control"}
{"Compound": "COc1ccccc1N=C(C)C1C(=O)c2ccccc2C1=O", "Target or test system": "P388 leukemia ip, CD2F1 mice, survival T/C", "T/C": "104 % of control"}
{"Compound": "COC(=O)c1n[nH]n(Cc2cccs2)c1=O (tested in a mixture with another compound)", "Target or test system": "P388 leukemia ip, CD2F1 mice, survival T/C", "T/C": "108 % of control"}
{"Compound": "NC(Cc1ccccc1)C(=O)NC(CC(=O)O)C(=O)O (stereo not drawn) (H-Phe-Asp-OH; configuration not given here)", "Target or test system": "P388 leukemia ip, CD2F1 mice, survival T/C", "T/C": "99 % of control"}
